Cited source: the supplement of paper PMC12042874

assay: amyloid nucleation score (Sup35N fusion, yeast selection) (log enrichment); library NNK2; higher = more nucleation; inactive = no reads after selection;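 further: zero at mode of non-aggregating sequences after 7 days selection at 30°C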
observedProperty: amyloid nucleation score

*Q* I am curious: what amyloid nucleation score value has been reported for DKSNLARFTSSKWS ?
*A* 0.426

*Q* Repeat with SIRLYSCSMVLTSSSVNCYQ
*A* 1.86

*Q* Repeat with DQKAIVMVRNLDAWVGCAHY
*A* 0.266

*Q* Repeat with NPTHLLPHTEIGVLDTCAF
*A* 0.265

*Q* Repeat with KRNLVCAISFLDSRSCRRTA
*A* 0.119

*Q* Repeat with FGLMLRTS
*A* 0.062

*Q* Repeat with CESENKQYKNRLEIP
*A* -2.05

*Q* Repeat with LMKLNSTLSFDYFPLT
*A* -0.166

---

assay: amyloid nucleation score (Sup35N fusion, yeast selection) (log enrichment); library NNK3; higher = more nucleation; inactive = no reads after selection
observedProperty: amyloid nucleation score

VECCNGLCDDVLGAVGNLGL inactive
AIVESKPYLRSVL inactive
GGKMMFFKIRFFC inactive
HKDICLNFSVDHLDVMSQCA inactive
QDLMRTEHFNYS inactive
HNCLVLVCDTCLSVYWNFSS 2.83
IDVYRFRKGA inactive
CCFIYECSLRNLSALVDDQR 1.18

Continue with the substance presented below.
*Q* I am curious: what amyloid nucleation score value has been reported for NARGVKSDEILN ?
*A* inactive

---

For each entry below, report its amyloid nucleation score value.
test: amyloid nucleation score (Sup35N fusion, yeast selection) (log enrichment); library NNK2; higher = more nucleation; inactive = no reads after selection
Returns: the value as a bare number; no unit string appended.

*Q* I am curious: what amyloid nucleation score value has been reported for GSVREQNFISRASLYAHGLS ?
*A* -0.095

*Q* Repeat with SQGIVSDAANYMHILSAGYD
*A* 0.044

*Q* Repeat with VLAHNSGWNGTKETYCMSNG
*A* -0.436

*Q* Repeat with SISLLMICCDL
*A* 8.51

*Q* Repeat with REEGFS
*A* -1.29

*Q* Repeat with TSLSVVSGFLAFSGSPHSGT
*A* 4.39

*Q* Repeat with MDGVMRTRFFLDSDVFYSSH
*A* 3.69

*Q* Repeat with LLLPSAGKGSL
*A* 0.219

*Q* Repeat with YHLSELVMRREWSDWYNVCG
*A* 0.126

*Q* Repeat with SALCAYIQSLFNDCRTLDKW
*A* -0.5

*Q* Repeat with SGCPNDWQYFSS
*A* -1.08

*Q* Repeat with FPGWGIDPTYKVKVRWMNRA
*A* 0.566

*Q* Repeat with WLTEVY
*A* -0.587

*Q* Repeat with GDGFLSFSERSKKYSQSS
*A* -0.855

*Q* Repeat with KEHGMESRPSWLTFSIYLVG
*A* 0.428

*Q* Repeat with VWALKGMIYN
*A* 0.33

*Q* Repeat with GLYVLYDNINWDERTRALSG
*A* -0.728

*Q* Repeat with NYVNICFNLKFQVRHST
*A* 4.41

*Q* Repeat with SRHRVLFFYKFVCLIWV
*A* -0.8

*Q* Repeat with VGSSRFLRDGVTRGLSMSGS
*A* -1.07

*Q* Repeat with YSSYYHNFFRW
*A* -0.277

*Q* Repeat with YMLTIRFICFGAVGHSDMHE
*A* 0.672

*Q* Repeat with SLCPCLMIIS
*A* -0.852

*Q* Repeat with CFSSVIFAMIFVRNR
*A* 1.73

*Q* Repeat with TWDVNVLHVYLSMSSTTLHF
*A* -0.46

*Q* Repeat with QWSFPAILRLDTNTSRYYFQ
*A* -0.776

*Q* Repeat with SKIVCDMFLGHEDLPCTRLF
*A* 0.057

*Q* Repeat with NKRSCNGCGSRAHQDSL
*A* -0.176

*Q* Repeat with FMRMGTFYSDAVCMLYVSKR
*A* 1.28

*Q* Repeat with FCCSKLAPRTGYYSF
*A* 7.12

*Q* Repeat with NRMFLLVLFVEL
*A* 0.572
